Source listed as paper PMC4580457.

Test summary: in vivo
Parameters: species or system BALB/C athymic nude mice
Experimental setup: BALB/C athymic nude, mouse, iv, 150 uL of 1 mM, T/NT ratio, T/muscle
Peptide text beside a SMILES is read from it. * marks the point of attachment. 5FAM = O=C1OC2(c3ccc(O)cc3Oc3cc(O)ccc32)c2ccc(C(=O)*)cc21

Compound | tissue to tissue ratio at 1 h
C[C@@H](O)[C@H](NC(=O)[C@H](CCCNC(=N)N)NC(=O)[C@H](CCCCNC(=O)c1ccc2c(c1)C(=O)OC21c2ccc(O)cc2Oc2cc(O)ccc21)NC(=O)[C@H](CC(N)=O)NC(=O)CNC(=O)[C@@H](N)CS)C(=O)N[C@@H](CCCNC(=N)N)C(=O)O [FAM-tLyP-1] (H-CGNK(5FAM)RTR-OH) | 2.87
CSCC[C@H](N)C(=O)N[C@@H](C)C(=O)N[C@@H](CCC(N)=O)C(=O)N[C@@H](CCCCNC(=O)c1ccc2c(c1)C(=O)OC21c2ccc(O)cc2Oc2cc(O)ccc21)C(=O)N[C@H](C(=O)N[C@@H](CO)C(=O)N[C@@H](Cc1c[nH]cn1)C(=O)O)[C@@H](C)O [FAM-control peptide] (H-MAQK(5FAM)TSH-OH) | 1.31
